- TGT: Gastrin/cholecystokinin type B receptor (Rattus norvegicus)
- Sequence (P30553 whole entry): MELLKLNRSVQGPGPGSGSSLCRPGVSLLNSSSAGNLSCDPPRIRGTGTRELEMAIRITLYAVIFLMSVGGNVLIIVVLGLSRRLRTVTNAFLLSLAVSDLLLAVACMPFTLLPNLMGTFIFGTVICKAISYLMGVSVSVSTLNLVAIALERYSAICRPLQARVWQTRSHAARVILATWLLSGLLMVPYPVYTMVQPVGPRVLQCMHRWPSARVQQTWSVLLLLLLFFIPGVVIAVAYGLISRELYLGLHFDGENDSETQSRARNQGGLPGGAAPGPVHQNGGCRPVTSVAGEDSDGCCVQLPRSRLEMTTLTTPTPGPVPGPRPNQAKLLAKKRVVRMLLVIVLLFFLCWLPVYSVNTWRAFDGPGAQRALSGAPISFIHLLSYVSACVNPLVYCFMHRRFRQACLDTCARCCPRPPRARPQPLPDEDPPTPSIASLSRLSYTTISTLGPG
- ASSAY COMMENT: Effective concentration for the stimulation of Inositol Phosphate accumulation in CHO cells expressing wild-type Cholecystokinin type B receptor
- Type: functional, cell-based
Non-standard residues stand in square brackets, D forms with d. Residues, ends and D or L forms follow the SMILES beside them. *: point of attachment. NMeNle = CCCC[C@H](NC)C(=O)O; Boc = CC(C)(C)OC(=O)*
PROPERTY LABEL: pEC50
pEC50 (log units): -log10 of the concentration in mol/L.

Value of pEC50 reported for the compound CCCC[C@@H](C(=O)N[C@@H](CC(=O)O)C(=O)N[C@@H](Cc1ccccc1)C(N)=O)N(C)C(=O)[C@H](Cc1c[nH]c2ccccc12)NC(=O)OC(C)(C)C (Boc-W[NMeNle]DF-NH2) is 8.82
